Biological target: T1, mini-vRNAP (N4 virion RNA polymerase central domain) (Bacteriophage N4, UniProt Q859P9 SEQ:38-1143)
T1 chain: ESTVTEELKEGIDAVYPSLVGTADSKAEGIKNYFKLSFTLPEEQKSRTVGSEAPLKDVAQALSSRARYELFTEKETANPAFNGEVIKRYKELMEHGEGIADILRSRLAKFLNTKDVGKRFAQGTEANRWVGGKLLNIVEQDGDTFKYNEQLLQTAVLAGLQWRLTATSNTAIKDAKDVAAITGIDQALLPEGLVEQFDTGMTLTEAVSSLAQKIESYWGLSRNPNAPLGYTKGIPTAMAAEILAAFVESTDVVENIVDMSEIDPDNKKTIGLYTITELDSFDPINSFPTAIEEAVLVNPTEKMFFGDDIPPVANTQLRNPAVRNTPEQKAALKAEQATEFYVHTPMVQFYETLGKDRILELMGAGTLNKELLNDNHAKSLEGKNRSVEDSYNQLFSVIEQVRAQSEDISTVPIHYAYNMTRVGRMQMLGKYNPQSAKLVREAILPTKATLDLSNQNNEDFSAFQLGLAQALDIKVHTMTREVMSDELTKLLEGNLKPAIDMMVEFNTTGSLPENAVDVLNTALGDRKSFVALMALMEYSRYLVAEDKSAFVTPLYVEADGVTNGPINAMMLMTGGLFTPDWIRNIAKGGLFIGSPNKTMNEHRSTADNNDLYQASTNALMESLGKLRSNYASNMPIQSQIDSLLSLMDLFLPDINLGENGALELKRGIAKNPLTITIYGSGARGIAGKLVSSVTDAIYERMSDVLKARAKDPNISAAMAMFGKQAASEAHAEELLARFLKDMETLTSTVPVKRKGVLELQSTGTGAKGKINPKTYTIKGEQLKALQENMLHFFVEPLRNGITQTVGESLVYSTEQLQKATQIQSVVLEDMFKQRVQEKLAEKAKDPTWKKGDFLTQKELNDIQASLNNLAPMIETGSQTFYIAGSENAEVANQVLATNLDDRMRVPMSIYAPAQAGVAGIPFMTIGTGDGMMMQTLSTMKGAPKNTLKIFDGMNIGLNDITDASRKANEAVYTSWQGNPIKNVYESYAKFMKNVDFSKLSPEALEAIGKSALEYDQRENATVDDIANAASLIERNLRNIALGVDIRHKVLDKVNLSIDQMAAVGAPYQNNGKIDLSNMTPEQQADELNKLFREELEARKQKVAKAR
Test: filter; stem shortened by two bp, affinity unchanged
Settings: tags: N-terminal His6 (pBAD B); TALON and MonoQ; hairpin, 3 bp stem
pKd: −log10 of the molar value.
readout_type: pKd

Challenge: I am curious: what pKd value has been reported for TCCAAAAGAAGCGGAGCT (ssDNA) [P2 stem shortened to 3 bp] ?
Response given: ~9.00
